Value source: a melting point compilation (Tetko et al.; mined from patent text by program, amines drawn as free bases though some values may be those of a salt)

Would you kindly list melting point for each of these molecules?

Provide melting point for all items below, preserving their order.
1. COc1cc(C(=O)NS(=O)(=O)c2ccccc2C)ccc1Cn1ncc2ccc(NC(=O)CC3CCCC3)cc21
2. N#Cc1ccc2c(c1)S(=O)c1ccccc1C=C2 (stereo not drawn)

Response:
1. 184 to 185 °C
2. 220 to 222 °C

// melting point value for OC[C@@H]1O[C@H](n2c(NC3CC3)nc3c(Br)c(Cl)c(Cl)cc32)[C@@H](O)[C@H]1O : 205 to 208 °C

###

reported.property: melting point

- compound: "COC(=O)c1ccc(C)c(-n2c(C)cc(OCc3ccc(F)cc3CNC(=O)Nc3cc(C(C)(C)C)nn3-c3ccc(O)cc3)c(Cl)c2=O)c1"
  melting point: "188 to 190 °C"
- compound: "COc1ccc2nc(NC(=O)C(CC3CCCC3)c3ccc(S(=O)(=O)Nc4ccccc4)cc3)sc2n1 (configuration not stated)"
  melting point: "223 to 226 °C"
- compound: "CC(=Cc1ccccc1)c1cc2c(cc1C)C(C)(C)CCC2(C)C"
  melting point: "75 to 77 °C"
- compound: "COc1ccc(C(=O)Cc2c(Cl)cncc2Cl)c2c1OCCCO2"
  melting point: "150 to 151 °C"
- compound: "CCC(C)NC(=O)Nc1cc(-c2c(-c3ccc(F)c(C)c3)nc3cccnn23)ccn1 (configuration not stated)"
  melting point: "196 to 197 °C"

Provide melting point for all items below, preserving their order.
1. COc1ccc(C(=O)Cc2cccs2)cc1
2. COc1ccc(Oc2nc(Nc3cccc(C(=O)O)c3)nc(Oc3ccc(C=O)cc3OC)n2)cc1
3. CNS(=O)(=O)Nc1ncccc1C(=O)OC
4. CSc1nn2c(N3CCN(C)CC3)nc(C)nc2c1S(=O)(=O)c1ccccc1
5. CSCCNC(=O)c1cccc(-c2cccc3cc(Cc4cccc(C(F)(F)F)c4)oc23)c1
6. CCn1nc(OCC(=O)C(C)(C)C)c(-c2ccc(S(C)(=O)=O)cc2)c1-c1ccc(F)cc1
7. Cc1nc(-c2ccc(-c3cnc4[nH]c(=O)n(CCN5CCCC5=O)c4n3)cc2)n[nH]1
8. CC1(C)OCc2cc([C@@H](O)CN[C@H]3CCc4ccc(O)cc4C3)ccc2O1

Response:
1. 44 to 45.5 °C
2. 180 to 182 °C
3. 133 to 139 °C
4. 169 to 171 °C
5. 135 to 138 °C
6. 63 to 66 °C
7. 315 to 316 °C
8. 156 to 158 °C

Provide melting point for all items below, preserving their order.
1. CCCCc1nc2c(N)nc3ccc(O)cc3c2n1CCCCNC(=O)c1ccccc1
2. COc1ccc(OC)c(CCNC(=O)N(C)O)c1

Response:
188 to 190 °C
73 to 74 °C

Provide melting point for all items below, preserving their order.
1. N[C@H](Cc1cccc(OC(F)(F)C(F)F)c1)[C@@H](O)c1csc(-c2ccccc2)n1 (racemic)
2. C=CCCO[C@@H](Cc1ccc(OCCc2nc(-c3ccc(C(C)C)cc3)oc2C)c2ccsc12)C(=O)O

Response:
128 to 130 °C
124 to 126 °C

###

reported.property: melting point

- compound: "CC(C)Oc1cccc(N2CC(=O)NC(=O)N2)c1"
  melting point: "170 to 172 °C"
- compound: "CCOC(=O)c1c(SC)c(C#N)c(=O)n2ccccc12"
  melting point: "128 to 129 °C"

Provide melting point for all items below, preserving their order.
1. COc1ccc(F)cc1C(C)(C)CC(O)(Cc1cccc(C(N)=O)c1)C(F)(F)F (centres undefined)
2. O=C1OC(CCOc2cccc3ccccc23)C(O)=C1O (centres undefined)

Response:
70 to 75 °C
163 to 164 °C

###

Would you kindly list melting point for each of these compounds?

- compound: "Ic1c[nH]c2nccc(OC3CCCCC3)c12"
  reported.property: "melting point"
  test.result: "199 to 201 °C"

Provide melting point for all items below, preserving their order.
1. O=C(Nc1ccc(Cl)c(C(F)(F)F)c1)C1C(=O)C2CCC(C2)C1=O (centres undefined)
2. COc1cccc2c(Nc3ccccc3C)nc(N3CCCC3)nc12
3. CN1CCN(C2CC3C4CCC5CC(O)C(N6CCC(O)CC6)CC5(C)C4CCC3(C)C2O)CC1 (centres undefined)

Response:
1. 136 to 137 °C
2. 181 to 183 °C
3. 248 to 250 °C

Provide melting point for all items below, preserving their order.
1. CN1CC[C@@H](c2c(O)cc(O)c3c(=O)cc(-c4ccc([N+](=O)[O-])cc4)oc23)[C@@H]1CO
2. OCc1csc(N2CCCCC2)n1
3. COc1cc(-c2cccc(Cl)c2)c2cc(C(O)(c3ccc(Cl)cc3)c3nncn3C)ccc2n1 (centres undefined)
4. C/C(=C\c1ccccc1)CNc1cccc(-c2ccnc3c(C(=O)c4cccs4)cnn23)c1
5. CC(C)(C)CC(C)(C)NC(=O)c1cc(C(C)(C)C)c(OC(=O)c2cc(C(C)(C)C)c(O)c(C(C)(C)C)c2)c(C(C)(C)C)c1

Response:
275 to 277 °C
89 to 90 °C
155 °C
74 to 76 °C
213 to 215 °C

###

reported.property: melting point

- compound: "COc1ccc(-c2nc(N)ncc2-c2ccc(=O)[nH]n2)cc1OC"
  test.result: "225 °C"
- compound: "CCc1noc(NS(=O)(=O)c2ccccc2)c1C"
  test.result: "94 to 95 °C"
- compound: "CCOC(=O)[C@H](Cc1ccc(-c2c(C(F)(F)F)cc(C)n(C)c2=O)cc1)NC(=O)c1c(Cl)cccc1Cl"
  test.result: "86 to 91 °C"
- compound: "Cc1cc(-n2ncc(=O)[nH]c2=O)cc(Cl)c1C(C)(C#N)c1ccc(Cl)cc1 (stereo not given)"
  test.result: "227 °C"
- compound: "COc1ccc(N2C(=O)O[C@H](CO)[C@@H]2C)cc1"
  test.result: "99 to 101 °C"

Provide melting point for all items below, preserving their order.
1. N#Cc1cn(C2OC(CO)C(O)C2O)c2ncn(O)c(=O)c12 (stereo not given)
2. Cc1nc(CN(C)C(=O)N[C@H](C(=O)N[C@@H](Cc2ccccc2)C[C@H](O)[C@H](Cc2ccccc2)NC(=O)OCc2cccnc2)C(C)C)cs1
3. CCOC(=O)c1c(Cn2ccnn2)nc2cc(OC)c(OC)cc2c1-c1ccc(OC)c(OC)c1

Response:
229 to 231 °C
69 to 72 °C
195 to 196 °C

###

reported.property: melting point

Would you please look over these solved cases?
- molecule: "OC1(c2ccc(-c3cncnc3)cc2)CN2CCC1CC2 (centres undefined)"
  melting point: "184 to 185 °C"
- molecule: "O=C(Nc1ccc(N2CCCC2)cc1)N(C[C@H]1CC[C@H](CN(C(=O)Nc2ccc(N3CCCC3)cc2)C2CCCCC2)CC1)C1CCCCC1"
  melting point: "149 to 152 °C"
- molecule: "CC(=O)C=Cn1sc(Cl)cc1=O"
  melting point: "137 to 139 °C"
- molecule: "COn1nnc2cc3c(=O)n(C(C)Cn4ncnn4)nnc3cc2c1=O (centres undefined)"
  melting point: "227 to 231 °C"

Provide melting point for all items below, preserving their order.
1. CC1CCN(CCOc2ccc(NC(=O)CC(=O)c3ccc(-c4ccccc4)cc3)cc2Cl)CC1
2. N#Cc1cc(C(=O)NNC(=O)c2occc2-c2ccc(OCc3ccccc3)cc2)ccc1O
3. CC(=O)N1CCC(C(=O)Nc2ccccc2Oc2ccc(Cl)cc2Cl)CC1
4. [N-]=[N+]=NCC1Cc2c(ccc3c2CCC(=O)N3)O1 (centres undefined)
5. O=C(Cc1c[nH]c2ccccc12)Nc1ccccc1C(=O)O

Response:
1: 135 to 139 °C; 2: 208 to 209 °C; 3: 194 to 196 °C; 4: 157 to 158 °C; 5: 205 to 207 °C

###

Would you kindly list melting point for each of these compounds?

Would you please look over these solved cases?
- compound: "CCCOc1cc(OCCC)c2c(C)c(CCO)c(=O)oc2c1"
  melting point: "106 to 108 °C"
- compound: "O=C(c1ccccc1)C(O)C1OC(n2cnc3c(NC4CCCc5ccccc54)ncnc32)C(O)C1O (stereo unspecified)"
  melting point: "107 to 112 °C"
- compound: "Cc1cc2c(c3c1NC(=O)CC3)OC(CN(C)C(=O)CCCO)C2 (stereo unspecified)"
  melting point: "141 to 143 °C"
- compound: "O=C(CCC1CCC(=O)O1)NCCc1ccccc1 (stereo unspecified)"
  melting point: "86 to 87 °C"

Provide melting point for all items below, preserving their order.
1. Oc1ccc2c(c1)CCc1c-2oc2cc(O)ccc12
2. CC(C)(C)OC(=O)NC(Cc1ccccc1)C(O)CNCC(O)C(Cc1ccccc1)NC(=O)C1c2ccccc2CN1C=O (stereo unspecified)
3. Cc1ccc(-c2noc(C(F)F)c2-c2ccc(S(N)(=O)=O)cc2)cc1
4. O=C1NC(=O)c2c1c(-c1ccccc1Cl)cc1c2cc(CO)n1CCCBr
5. COCN1C(C)=NC(C)=C(C(=O)NCCCN2CCC(C(=O)OC)(c3ccccc3)CC2)C1c1ccc(F)c(F)c1 (stereo unspecified)
6. Cc1cc(SC(C)C)c(NC(=O)CCCCCCSc2nc3cccc(C(F)(F)F)c3o2)c(SC(C)C)n1
7. COc1cc(C)nc(NCSc2ccc(Cl)cc2)n1

Response:
1: 219 to 220 °C; 2: 174 to 176 °C; 3: 169 to 172 °C; 4: 218 to 220 °C; 5: 53 to 57 °C; 6: 76 to 78 °C; 7: 78 to 82 °C
